Data provenance: paper PMC3953453

- STUDY SYSTEM: β-glucuronidase derived from intestinal S9 fraction (Rattus norvegicus, UniProt P06760)
- TEST SUMMARY: hydrolysis of wogonoside by rat intestine S9 fractions
- Format: in vitro ADME
- APPLIED CONDITIONS: read-out: Km of wogonoside hydrolysis; Ile S9 fraction
MEASURED PARAMETER: Km (µM)

>  <COMPOUND>
COc1c(O[C@@H]2O[C@H](C(=O)O)[C@@H](O)[C@H](O)[C@H]2O)cc(O)c2c(=O)cc(-c3ccccc3)oc12 [wogonoside, wogonin-7-O-glucuronide]

>  <READOUT VALUE>
25.7

$$$$

----------
- STUDY SYSTEM: β-glucuronidase derived from intestinal S9 fraction (Rattus norvegicus)
- Sequence (P06760 23-648): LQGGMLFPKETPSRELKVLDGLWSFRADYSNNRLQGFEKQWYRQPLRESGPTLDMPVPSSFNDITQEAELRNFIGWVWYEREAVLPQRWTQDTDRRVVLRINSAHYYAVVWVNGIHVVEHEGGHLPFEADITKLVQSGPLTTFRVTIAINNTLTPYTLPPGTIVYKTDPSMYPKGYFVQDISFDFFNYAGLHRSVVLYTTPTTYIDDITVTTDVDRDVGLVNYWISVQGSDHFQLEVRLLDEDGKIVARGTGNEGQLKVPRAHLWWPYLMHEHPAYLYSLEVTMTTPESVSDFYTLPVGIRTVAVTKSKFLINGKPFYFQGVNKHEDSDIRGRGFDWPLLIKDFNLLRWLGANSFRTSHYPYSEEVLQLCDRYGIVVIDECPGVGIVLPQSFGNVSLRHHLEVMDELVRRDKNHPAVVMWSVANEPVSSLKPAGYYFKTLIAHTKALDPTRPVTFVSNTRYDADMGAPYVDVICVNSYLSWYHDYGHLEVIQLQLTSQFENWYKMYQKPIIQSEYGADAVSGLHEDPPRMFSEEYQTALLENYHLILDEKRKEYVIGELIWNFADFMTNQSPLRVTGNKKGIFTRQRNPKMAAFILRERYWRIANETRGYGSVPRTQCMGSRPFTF
- TEST SUMMARY: hydrolysis of wogonoside by rat intestine S9 fractions
- Assay type: in vitro ADME
- APPLIED CONDITIONS: read-out: Km of wogonoside hydrolysis; Duo S9 fraction
MEASURED PARAMETER: Km (µM)

>  <MOLECULE>
COc1c(O[C@@H]2O[C@H](C(=O)O)[C@@H](O)[C@H](O)[C@H]2O)cc(O)c2c(=O)cc(-c3ccccc3)oc12 [wogonoside, wogonin-7-O-glucuronide]

>  <MEASURED PARAMETER>
Km

>  <UNIT SPEC>
µM

>  <READOUT VALUE>
30

$$$$

----------
- STUDY SYSTEM: β-glucuronidase derived from intestinal S9 fraction (Rattus norvegicus)
- TEST SUMMARY: hydrolysis of wogonoside by rat intestine S9 fractions
- Assay type: in vitro ADME
- APPLIED CONDITIONS: read-out: Km of wogonoside hydrolysis; Jeu S9 fraction

>  <MOLECULE>
COc1c(O[C@@H]2O[C@H](C(=O)O)[C@@H](O)[C@H](O)[C@H]2O)cc(O)c2c(=O)cc(-c3ccccc3)oc12 [wogonoside, wogonin-7-O-glucuronide]

>  <UNIT SPEC>
µM

>  <Km>
28.2

$$$$
